Give melting point for every item shown.
Counter-ions that a name gives are not always drawn.

Reference set (8 entries):
# COMPOUND, OBSERVED_RESULT
records = [
    ("COc1ccccc1C1CCN(C[C@@H](Cc2ccncc2)NC(=O)C2(C)CCCCC2)CC1 (as salt: fumarate)", "108 to 110 °C"),
    ("COc1ccccc1C1=CCN(C[C@@H](Cc2ccccc2)NC(=O)C2CCCCC2)CC1 (as salt: fumarate)", "146 to 148 °C"),
    ("COc1ccccc1C1=CCN(C[C@@H](Cc2ccccc2)NC(=O)C2(C)CCCCC2)CC1 (as salt: fumarate)", "102 to 104 °C"),
    ("COc1ccccc1C1CCN(C[C@@H](Cc2cccnc2)N(C)C(=O)C2CCCCC2)CC1 (as salt: hydrochloride)", "148 to 150 °C"),
    ("COc1ccccc1C1CCN(C[C@@H](Cc2cccnc2)NC(=O)C2(C)CCCCC2)CC1 (as salt: fumarate)", "99 to 101 °C"),
    ("COc1ccccc1C1CCN(C[C@@H](Cc2ccccc2)NC(=O)C2CCCCC2)CC1 (as salt: fumarate)", "103 to 105 °C"),
    ("COc1ccccc1C1CCN(C[C@@H](Cc2ccccc2)NC(=O)C2(C)CCCCC2)CC1 (as salt: fumarate)", "77 to 79 °C"),
    ("COc1ccccc1C1CCN(C[C@@H](Cc2ccncc2)N(C)C(=O)C2CCCCC2)CC1 (as salt: hydrochloride)", "158 to 160 °C"),
]

For the next question, use this compound.
Form field melting point, entry COc1ccc(F)cc1C1CCN(C[C@@H](Cc2ccccc2)N(C)C(=O)C2(C)CCCCC2)CC1 (as salt: fumarate) : 160 to 165 °C

---

# SYSTEM_TESTED: human 5HT1A receptor (Homo sapiens, UniProt P08908)
# TEST_DESCRIPTION: 5-HT1A receptor intrinsic activity assay (cAMP)
# CONDITION_DETAILS: agonist mode: reversal of forskolin-stimulated cAMP in CHO cells transfected with human 5-HT1A
READOUT: pEC50
Answers are plain numbers, as −log10 of the molar value.

# MOLECULE, pEC50
records = [
    ("COc1ccccc1C1=CCN(C[C@@H](Cc2ccccc2)NC(=O)C2CCCCC2)CC1 [Example 3]", 8.47),
]

For the next question, use this molecule.
Form field pEC50, entry COc1ccccc1C1=CCN(C[C@@H](Cc2ccccc2)NC(=O)C2(C)CCCCC2)CC1 [Example 4] : 8.37

---

# SYSTEM_TESTED: human 5HT1A receptor (Homo sapiens, UniProt P08908)
# Sequence (P08908 1-422): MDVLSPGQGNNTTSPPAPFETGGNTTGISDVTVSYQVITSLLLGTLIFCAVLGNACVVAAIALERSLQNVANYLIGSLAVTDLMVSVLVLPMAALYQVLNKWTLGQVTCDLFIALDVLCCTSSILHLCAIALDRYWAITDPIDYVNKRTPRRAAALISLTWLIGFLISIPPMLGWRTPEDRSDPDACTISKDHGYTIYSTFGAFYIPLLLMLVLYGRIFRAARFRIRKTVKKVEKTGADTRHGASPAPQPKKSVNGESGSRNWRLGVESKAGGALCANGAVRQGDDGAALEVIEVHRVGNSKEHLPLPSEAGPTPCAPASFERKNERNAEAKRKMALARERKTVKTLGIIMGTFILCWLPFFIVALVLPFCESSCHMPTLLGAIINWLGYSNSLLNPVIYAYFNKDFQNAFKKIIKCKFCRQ
Give Ki for every item shown.
Answers are plain numbers, in nM.

Reference set (5 entries):
# STRUCTURE_SMILES_STRING, Ki [nM]
records = [
    ("COc1ccccc1C1CCN(C[C@@H](Cc2cccnc2)N(C)C(=O)C2CCCCC2)CC1", 1.77),
    ("COc1ccccc1C1=CCN(C[C@@H](Cc2ccccc2)NC(=O)C2(C)CCCCC2)CC1", 0.25),
    ("COc1ccccc1C1CCN(C[C@@H](Cc2ccncc2)N(C)C(=O)C2CCCCC2)CC1", 1.18),
    ("COc1ccccc1C1CCN(C[C@@H](Cc2cccnc2)NC(=O)C2(C)CCCCC2)CC1", 0.74),
    ("COc1ccccc1C1=CCN(C[C@@H](Cc2ccccc2)NC(=O)C2CCCCC2)CC1", 0.22),
]

For the next question, use this molecule.
Form field Ki, entry `COc1ccccc1C1CCN(C[C@@H](Cc2ccncc2)NC(=O)C2(C)CCCCC2)CC1` : 0.63
